System: PCSK9 (Homo sapiens, UniProt Q8NBP7)
Method summary: Surface plasmon resonance biosensor-based affinity analysis (Example 4)
Assay type: binding
Particulars: Table 7, Target PCSK9, SPR at 20° C.
Sequence (Q8NBP7 153-692): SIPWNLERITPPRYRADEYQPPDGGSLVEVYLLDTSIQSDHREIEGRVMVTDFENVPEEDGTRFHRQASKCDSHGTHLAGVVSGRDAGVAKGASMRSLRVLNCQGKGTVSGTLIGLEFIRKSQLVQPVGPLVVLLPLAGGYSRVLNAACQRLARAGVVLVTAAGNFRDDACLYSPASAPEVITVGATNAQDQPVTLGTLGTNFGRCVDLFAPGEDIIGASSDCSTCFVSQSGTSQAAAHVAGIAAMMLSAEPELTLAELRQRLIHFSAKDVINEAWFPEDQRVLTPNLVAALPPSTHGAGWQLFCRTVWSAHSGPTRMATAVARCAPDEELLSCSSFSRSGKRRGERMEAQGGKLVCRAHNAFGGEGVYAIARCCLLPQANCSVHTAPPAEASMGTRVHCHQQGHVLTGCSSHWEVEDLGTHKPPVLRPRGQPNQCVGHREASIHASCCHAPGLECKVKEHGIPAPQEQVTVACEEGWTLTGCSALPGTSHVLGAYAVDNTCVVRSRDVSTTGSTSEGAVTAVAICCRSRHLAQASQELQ
Parameter measured: pKd
Here pKd is given on a logarithmic scale as minus log10 of the concentration in mol/L.

Q: May I ask what pKd has been recorded for CC(=O)N[C@H](C(=O)N[C@H](C(=O)N[C@@H](Cc1ccccc1)C(=O)N[C@H](C(=O)N[C@@H](CO)C(=O)N[C@@H](Cc1c[nH]c2cc(F)ccc12)C(=O)N[C@@H](CCC(=O)O)C(=O)N[C@@H](CCC(=O)O)C(=O)N[C@@H](Cc1ccc(O)cc1)C(=O)N[C@@H](CC(C)C)C(=O)N[C@@H](CC(=O)O)C(=O)N[C@@H](Cc1c[nH]c2ccccc12)C(=O)N[C@H](C(N)=O)C(C)C)[C@@H](C)O)C(C)C)[C@@H](C)O ?
A: 5.85

====

System: PCSK9Δhelix (Homo sapiens, UniProt Q8NBP7)
Construct: Human PCSK9 construct M1-Q692 with an engineered TEV site (residue deletion Y166, R167); made in house; host or cells: CHO
Sequence (Q8NBP7 with tags, fused parts or gaps limits assumed): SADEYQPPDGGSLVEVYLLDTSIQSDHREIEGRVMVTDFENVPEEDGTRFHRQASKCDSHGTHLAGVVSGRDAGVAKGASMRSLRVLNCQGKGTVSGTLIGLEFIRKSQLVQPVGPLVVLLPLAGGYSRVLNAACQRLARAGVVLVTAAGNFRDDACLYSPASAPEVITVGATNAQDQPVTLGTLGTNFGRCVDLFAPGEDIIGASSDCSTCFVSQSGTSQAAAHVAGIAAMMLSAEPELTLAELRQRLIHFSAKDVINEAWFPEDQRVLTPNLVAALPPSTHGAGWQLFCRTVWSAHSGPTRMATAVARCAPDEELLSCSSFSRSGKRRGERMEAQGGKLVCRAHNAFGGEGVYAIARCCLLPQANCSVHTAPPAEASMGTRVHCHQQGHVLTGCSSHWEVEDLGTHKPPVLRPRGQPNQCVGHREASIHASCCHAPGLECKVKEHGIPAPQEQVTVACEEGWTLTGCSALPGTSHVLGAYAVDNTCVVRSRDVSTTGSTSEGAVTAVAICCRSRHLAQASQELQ
Sequence (Q8NBP7 31-152 partner limits assumed): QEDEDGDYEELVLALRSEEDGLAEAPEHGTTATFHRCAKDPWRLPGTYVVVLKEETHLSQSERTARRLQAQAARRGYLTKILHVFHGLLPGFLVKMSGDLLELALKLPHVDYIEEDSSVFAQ
Method summary: PCSK9Δhelix/Ab20 TR-FRET binding assay
Particulars: TR-FRET, Example 7; read-out: PCSK9Δhelix/Ab20 IC50
Reported IC50 by item:
Quick reminder: number only, in µM, skip the unit.

A selection of reference data follows.
>>> recorded_measurement("Ac-DLAPWNLVRIGLLR-NH2 [Compound 43]")
8.19
>>> recorded_measurement("Ac-DLMPWNLVRIGL-NH2 [Compound 47]")
12.6
>>> recorded_measurement("Ac-PWNLVRIGLLR-NH2 [Compound 52]")
10.2
>>> recorded_measurement("Ac-DLMPWNLVRIGALR-NH2 [Compound 56]")
17.1

Now consider the entry below.
Q: May I ask what IC50 has been recorded for Ac-MPWNLVRIGLLR-NH2 [Compound 51] ?
A: 4.69

====

System: PCSK9 (Homo sapiens, UniProt Q8NBP7)
Method summary: PCSK9/EGF(A) TR-FRET binding assay
Particulars: TR-FRET; Table 8D, disulfide-cyclized extension peptides; read-out: PCSK9/EGF(A) IC50
Sequence (Q8NBP7 153-692): as the sequence (Q8NBP7 153-692) above
Sequence (Q8NBP7 31-152 partner limits assumed): as the sequence (Q8NBP7 31-152 partner limits assumed) above
Bridge positions count the residues as written; N and C are the ends. Square brackets hold non-standard residues; d marks the D form. Peptide text beside a SMILES is read from it.
Parameter measured: IC50

>>> recorded_measurement("CC[C@H](C)[C@@H]1NC(=O)[C@H](CCCNC(=N)N)NC(=O)[C@H](CCCCN)NC(=O)[C@H](CC(C)C)NC(=O)[C@H](CC(N)=O)NC(=O)[C@H](Cc2c[nH]c3ccccc23)NC(=O)[C@H](CC(C)C)NC(=O)[C@@H](NC(=O)CNC(C)=O)CSSC[C@@H](C(=O)N[C@@H](Cc2c[nH]c3ccccc23)C(=O)N[C@@H](Cc2ccccc2)C(N)=O)NC(=O)[C@H](CCC(N)=O)NC(=O)[C@H](CO)NC(=O)CNC1=O [Compound 87] (Ac-GCLWNLKRIGSQCWF-NH2; disulfide 2-13 (inferred))")
"> 50 µM"

Now consider the entry below.
Q: May I ask what IC50 has been recorded for CC[C@@H](C)[C@H]1NC(=O)[C@H](CCCNC(=N)N)NC(=O)[C@H](CCC(N)=O)NC(=O)[C@H](CC(C)C)NC(=O)[C@H](CC(N)=O)NC(=O)[C@H](Cc2c[nH]c3ccccc23)NC(=O)[C@@H]2CCCN2C(=O)[C@H](CC(C)C)NC(=O)[C@H](CCCNC(=N)N)NC(=O)[C@@H](NC(C)=O)CSSC[C@@H](C(N)=O)NC(=O)[C@@H]2CCCN2C(=O)[C@H](CC(C)C)NC(=O)CNC1=O [Compound 101] (Ac-CRLPWNLQR[dI]GLPC-NH2; disulfide 1-14) ?
A: > 50 µM
